Each recorded value in this set is attributed to the supplement of paper PMC10126150.

System: ATP;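 further: ATP exposure 15 min at 22 °C before imaging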
Experiment: switch fluorescence ratio, 500 uM ATP over buffer (Cy3 cluster intensity, sum of 5 cycles each) (fold (ratio)); higher = stronger signal-on switching upon ATP binding; sequences stand for … in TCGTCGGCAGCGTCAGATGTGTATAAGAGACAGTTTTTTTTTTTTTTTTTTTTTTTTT…TC
Details: aptamer strand: ATP DNA aptamer (quencher-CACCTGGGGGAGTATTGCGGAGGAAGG + anchor), 100 nM annealed; ATP concentration: 500 uM
Measured endpoint: switch fluorescence ratio

Per the records, this sequence ( TAGTTGACCC ) has switch fluorescence ratio equal to 1.01

// field: switch fluorescence ratio; key: GAAACAGGCA ; value = 0.963

Sample GTCGTCGGCG ; switch fluorescence ratio observed: 1.02

The reported switch fluorescence ratio of the sequence AGCCGGTTCC was 1.01

response.value for CCTCTTGAGG (field: switch fluorescence ratio) = 0.978

The recorded switch fluorescence ratio for entry TTTGTGCAGG equals 1.04

sequence TCGGTCCTTT , switch fluorescence ratio observed: 0.99

What the record says about AAGGGGGTCC : switch fluorescence ratio is 1.03

Reported switch fluorescence ratio of TTACGGGGTT : 0.988

Measured switch fluorescence ratio, ACAAGGTATA : 1.15

The sequence listed as ATGAGTGGAG shows switch fluorescence ratio equal to 1.03

So, TGCGGGGGAG ? Its switch fluorescence ratio was 0.996

Consider AACCTTAGGA . Its measured switch fluorescence ratio is 1.05

So for TTACTCTTCT , the logged switch fluorescence ratio turned out to be 0.972

So for AGATGCATGG , the logged switch fluorescence ratio turned out to be 1.02

The sequence listed as ATTCGTTTGC shows switch fluorescence ratio equal to 1

The sequence identified as GTTTGTGGTT registered its switch fluorescence ratio at 0.988

For reference, reported switch fluorescence ratio for GCCTTTTGCA stands at 1.01

Record TTTAGGTGTG , field switch fluorescence ratio: 1.02

Memo: GTCGTGCCTG , reported switch fluorescence ratio: 1.04

----------
Tested on: ATP;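 further: ATP exposure 15 min at 22 °C before imaging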
Test: switch fluorescence ratio, 500 uM ATP over buffer (Cy3 cluster intensity, sum of 5 cycles each) (fold (ratio)); higher = stronger signal-on switching upon ATP binding; sequences stand for … in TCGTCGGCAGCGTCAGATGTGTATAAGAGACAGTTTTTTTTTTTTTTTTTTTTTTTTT…TC
Conditions: aptamer strand: ATP DNA aptamer (quencher-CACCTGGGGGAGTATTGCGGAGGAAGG + anchor), 100 nM annealed; ATP concentration: 500 uM
Measured endpoint: switch fluorescence ratio
# answer = number (no unit)

Just so you know, measured switch fluorescence ratio for ATAATGTACA came out at 1.04

TTAATCGATG yielded switch fluorescence ratio of 1

switch fluorescence ratio in this record for ATTCAGGTTT : 0.992

The recorded switch fluorescence ratio for entry CGTTGGTGGT equals 0.99

Note to self: switch fluorescence ratio recorded for CGTAGACTCG was 1.02

The sequence listed as CGCGACTTAA has a reported switch fluorescence ratio of 1.04

Reported switch fluorescence ratio for GAAGTGTGAA was 1

The sequence GGGGGATGGC showed switch fluorescence ratio equal to 0.975

The sequence listed as TGATTGGGTA shows switch fluorescence ratio equal to 1

Per the record, CGAGGTTAAT has switch fluorescence ratio of 1.05

Looking up TTATAGCACC , I found its switch fluorescence ratio recorded as 1.06

The reported value for TCATGCTGAG in terms of switch fluorescence ratio is 0.98

Record ATTCGAATGT . Reported switch fluorescence ratio: 0.999

Summary for this sequence, TATCGCTGGT : switch fluorescence ratio is 1.04

# switch fluorescence ratio (sequence: TTGAATCGGG ) is 0.944

# switch fluorescence ratio (sequence: GCTGGGTAGT ) is 1.01

switch fluorescence ratio reading for CTGGGGTGTG : 1.01

The sequence listed as CATATTTGAC has a reported switch fluorescence ratio of 1.04

Reported switch fluorescence ratio of TAAGTGAAAG : 0.986

Per the records, this sequence ( AGGCGGTATC ) has switch fluorescence ratio equal to 1.05

The measured switch fluorescence ratio associated with ATCAGTGGTA reads 0.987

Looking up CGAGCATTTT , I see its switch fluorescence ratio listed as 1.14

Reported switch fluorescence ratio for ATCAGTGCGA was 1.04

# sequence TGTTCTACAG ; its switch fluorescence ratio = 1

Memo: TCGAATGGCC , reported switch fluorescence ratio: 0.994

Input AATGAGATCG . Output switch fluorescence ratio: 1.01

For reference, reported switch fluorescence ratio for CTTCTGTGGG stands at 1.03

The measured switch fluorescence ratio associated with CATAGTGATG reads 0.986

For record GGTTTTTGTT the listed switch fluorescence ratio is 0.991

# switch fluorescence ratio (sequence: GAGGGGATGA ) is 1.01

# switch fluorescence ratio of ATGACTTTGG = 0.977

Documented switch fluorescence ratio of ATAAAGGCGA : 0.975

switch fluorescence ratio recorded for this sequence, TAATTGTGCT , is 0.979

Input TTACCTTTGT . Output switch fluorescence ratio: 1.05

The recorded switch fluorescence ratio for AATGACGTGT is 1

Item: TATCAGGGG | switch fluorescence ratio: 1.11

// field: switch fluorescence ratio; key: GGTCTTGTTG ; value = 1.02

Looking up TCTGTTTGTA , I see its switch fluorescence ratio listed as 0.982

// switch fluorescence ratio lookup, sequence = TTTTAAGGG , result: 1.02

switch fluorescence ratio measured on ATACGGGAGC = 1.01

# switch fluorescence ratio of AGTACTAACT = 1.05

The sequence identified as TTTATTGAGG registered its switch fluorescence ratio at 1.03

Quick note, switch fluorescence ratio for ACATAATTTC landed at 1.03
